# Ratio listing for each entry below
# Study system: Adenosine receptors; A1 & A3 (Homo sapiens) (UniProt P30542+P0DMS8)
# Test protocol: Ratio of binding affinity of human A1 receptor to that of human A3 receptor
# Format: protein assay

Record excerpt, results attached:
O=C(Nc1cccc(Cl)c1)Nc1nc2nn(CCc3cc(Br)c(Br)cc3Br)cc2c2nc(-c3ccco3)nn12 5.5
CC(C)CCn1cc2c(nc(NC(=O)Nc3cccc(Cl)c3)n3nc(-c4ccco4)nc23)n1 2.5
COc1ccc(NC(=O)Nc2nc3nn(CCC(C)C)cc3c3nc(-c4ccco4)nn23)cc1 5.8
CCn1cc2c(nc(NC(=O)Nc3cccc(Cl)c3)n3nc(-c4ccco4)nc23)n1 155

Please find the next molecule below.
State the recorded Ratio for this entry: "O=C(Nc1cccc(Cl)c1)Nc1nc2ccc(Cl)cc2c2nc(-c3ccco3)nn12"
54

====

# Study system: Adenosine receptor A2a (Homo sapiens)
# Test protocol: Displacement of [3H]-SCH- 58261 from human adenosine A2A receptor expressed in CHO cells; range 1.90-3.37
# Assay type: cell-based
Measure: pKi
Here pKi is given on a logarithmic scale as minus log10 of the concentration in mol/L.

State the recorded pKi for this entry: "CCCn1cc2c(nc(N)n3nc(-c4ccco4)nc23)n1"
8.60

====

# Study system: UniProt P29275
# Test protocol: Displacement of [3H]DPCPX from Adenosine A2b receptor expressed in HEK-293 cells; range 38-63
Measure: pKi
Here pKi is given on a logarithmic scale as minus log10 of the concentration in mol/L.

Lab request: please report pKi under test system UniProt P29275 for "Nc1nc2nn(CCCc3ccccc3)cc2c2nc(-c3ccco3)nn12"
7.31

====

# Study system: Adenosine receptor A1 (Homo sapiens)
# Sequence (P30542 whole entry): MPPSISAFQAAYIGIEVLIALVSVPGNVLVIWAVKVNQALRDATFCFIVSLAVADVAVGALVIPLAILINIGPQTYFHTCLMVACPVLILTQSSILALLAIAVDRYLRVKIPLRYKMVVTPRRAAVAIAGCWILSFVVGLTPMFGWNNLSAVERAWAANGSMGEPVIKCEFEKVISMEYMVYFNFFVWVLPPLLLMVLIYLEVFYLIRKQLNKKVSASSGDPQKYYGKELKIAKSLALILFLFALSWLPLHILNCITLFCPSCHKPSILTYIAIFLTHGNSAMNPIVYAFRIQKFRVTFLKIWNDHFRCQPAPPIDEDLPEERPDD
# Test protocol: Displacement of [3H]DPCPX from human adenosine A1 receptor expressed in CHO cells; range 123-160
# Format: cell-based
Measure: pKi
Here pKi is given on a logarithmic scale as minus log10 of the concentration in mol/L.

State the recorded pKi for this entry: "Nc1nc2n[nH]cc2c2nc(-c3ccco3)nn12"
6.85

====

# Study system: Adenosine receptor A2b (Homo sapiens, UniProt P29275)
# Sequence (P29275 whole entry): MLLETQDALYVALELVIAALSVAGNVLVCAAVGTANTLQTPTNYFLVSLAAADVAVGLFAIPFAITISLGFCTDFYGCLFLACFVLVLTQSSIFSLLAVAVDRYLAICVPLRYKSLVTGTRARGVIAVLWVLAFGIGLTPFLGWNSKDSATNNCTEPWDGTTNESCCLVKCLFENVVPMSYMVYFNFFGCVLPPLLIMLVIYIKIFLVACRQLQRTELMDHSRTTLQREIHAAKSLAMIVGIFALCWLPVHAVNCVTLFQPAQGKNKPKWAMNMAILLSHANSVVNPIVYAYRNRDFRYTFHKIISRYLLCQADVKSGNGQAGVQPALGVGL
# Test protocol: Displacement of [3H]DPCPX from Adenosine A2b receptor expressed in […]; range 107-210
# Assay type: cell-based
Measure: pKi
Here pKi is given on a logarithmic scale as minus log10 of the concentration in mol/L.

State the recorded pKi for this entry: "CCn1cc2c(nc(NC(=O)Nc3cccc(Cl)c3)n3nc(-c4ccco4)nc23)n1"
6.82

====

# Study system: UniProt P29274
# Test protocol: Displacement of [3H]-SCH- 58261 from human adenosine A2A receptor expressed in CHO cells
# Format: cell-based
pKi: −log10 of the molar value.
Measure: pKi

State the recorded pKi for this entry: "O=C(Nc1cccc(Cl)c1)Nc1nc2nn(CCc3cccc4ccccc34)cc2c2nc(-c3ccco3)nn12"
< 5.00

====

# Study system: Adenosine receptor A2b (Homo sapiens)
# Test protocol: Displacement of [3H]-DPCPX from Adenosine A2b receptor expressed in […]; range 719-895
# Assay type: cell-based
Measure: pKi
Here pKi is given on a logarithmic scale as minus log10 of the concentration in mol/L.

Lab request: please report pKi under test system Adenosine receptor A2b (Homo sapiens) for "COc1ccc(NC(=O)Nc2nc3nn(CCCc4ccccc4)cc3c3nc(-c4ccco4)nn23)cc1"
6.10

====

# Study system: Adenosine receptor A3 (Homo sapiens, UniProt P0DMS8)
# Sequence (P0DMS8 whole entry): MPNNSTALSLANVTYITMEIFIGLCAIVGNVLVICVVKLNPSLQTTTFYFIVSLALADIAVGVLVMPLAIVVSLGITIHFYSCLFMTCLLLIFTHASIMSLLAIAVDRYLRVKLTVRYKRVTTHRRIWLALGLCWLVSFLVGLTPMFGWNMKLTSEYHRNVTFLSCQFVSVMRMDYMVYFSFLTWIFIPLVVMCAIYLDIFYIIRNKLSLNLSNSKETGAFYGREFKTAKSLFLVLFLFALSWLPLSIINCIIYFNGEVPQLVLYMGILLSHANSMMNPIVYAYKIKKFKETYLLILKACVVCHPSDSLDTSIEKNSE
# Test protocol: Inhibition of cAMP accumulation in CHO cells expressing human adenosine A3 receptor; range 2.5-9.3
# Format: functional, cell-based
Measure: IC50 (nM)
Give the number; nM is assumed, so skip it.

State the recorded IC50 for this entry: "CCn1cc2c(nc(NC(=O)Nc3ccc(OC)cc3)n3nc(-c4ccco4)nc23)n1"
4.8

====

# Study system: Adenosine receptor A1 (Homo sapiens)
# Test protocol: Displacement of [3H]DPCPX from human adenosine A1 receptor expressed in CHO cells; range 134-229
# Type: cell-based
Measure: pKi
Here pKi is given on a logarithmic scale as minus log10 of the concentration in mol/L.

State the recorded pKi for this entry: "CC(C)(C)n1cc2c(nc(N)n3nc(-c4ccco4)nc23)n1"
6.76

====

# Study system: Adenosine receptor A2a (Homo sapiens, UniProt P29274)
# Sequence (P29274 whole entry): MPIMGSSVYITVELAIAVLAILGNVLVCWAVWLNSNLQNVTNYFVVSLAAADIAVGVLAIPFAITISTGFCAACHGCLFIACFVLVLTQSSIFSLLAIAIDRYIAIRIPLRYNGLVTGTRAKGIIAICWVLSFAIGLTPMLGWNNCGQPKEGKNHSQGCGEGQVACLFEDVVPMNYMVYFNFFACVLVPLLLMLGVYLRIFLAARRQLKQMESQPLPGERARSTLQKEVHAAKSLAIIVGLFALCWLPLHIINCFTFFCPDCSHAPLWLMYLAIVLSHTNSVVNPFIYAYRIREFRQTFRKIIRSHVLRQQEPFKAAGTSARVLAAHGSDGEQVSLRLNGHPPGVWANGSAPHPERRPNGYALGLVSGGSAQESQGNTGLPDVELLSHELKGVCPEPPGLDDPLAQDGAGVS
# Test protocol: Displacement of [3H]-SCH- 58261 from human adenosine A2A receptor expressed in CHO cells; range 36-55
# Assay type: cell-based
Measure: pKi
Here pKi is given on a logarithmic scale as minus log10 of the concentration in mol/L.

State the recorded pKi for this entry: "CC(C)(C)n1cc2c(nc(N)n3nc(-c4ccco4)nc23)n1"
7.35

====

# Study system: Adenosine receptor A3 (Homo sapiens, UniProt P0DMS8)
# Test protocol: Displacement of [3H]MRE3008-F20 from human adenosine A3 receptor expressed in CHO cells; […]
# Type: cell-based
Measure: Ki (nM)
Give the number; nM is assumed, so skip it.

State the recorded Ki for this entry: "COc1ccc(NC(=O)Nc2nc3nn(CCc4ccccc4)cc3c3nc(-c4ccco4)nn23)cc1"
0.98

====

# Study system: Adenosine receptors; A1 & A3 (Homo sapiens) (UniProt P30542+P0DMS8)
# Test protocol: Ratio of binding affinity of human A1 receptor to that of human A3 receptor
# Assay type: protein assay
Measure: Ratio
Answer using only a numeral; do not append any unit.

Record excerpt, results attached:
CC(C)(C)n1cc2c(nc(NC(=O)Nc3cccc(Cl)c3)n3nc(-c4ccco4)nc23)n1 365
Cn1cc2c(nc(N)n3nc(-c4ccco4)nc23)n1 0.33

State the recorded Ratio for this entry: "CC(C)(C)n1cc2c(nc(N)n3nc(-c4ccco4)nc23)n1"
0.15

How about this compound: "COc1ccc(NC(=O)Nc2nc3n[nH]cc3c3nc(-c4ccco4)nn23)cc1"
3200

How about this compound: "COc1ccc(NC(=O)Nc2nc3nn(CCc4ccccc4)cc3c3nc(-c4ccco4)nn23)cc1"
205

How about this compound: "COc1ccc(NC(=O)Nc2nc3ccc(Cl)cc3c3nc(-c4ccco4)nn23)cc1"
43

How about this compound: "CCCCn1cc2c(nc(N)n3nc(-c4ccco4)nc23)n1"
0.02

How about this compound: "COc1ccc(NC(=O)Nc2nc3nn(CC=C(C)C)cc3c3nc(-c4ccco4)nn23)cc1"
7.5

How about this compound: "COc1ccc(NC(=O)Nc2nc3nn(CCCc4ccccc4)cc3c3nc(-c4ccco4)nn23)cc1"
6.27

How about this compound: "CCn1cc2c(nc(NC(=O)Nc3ccc(OC)cc3)n3nc(-c4ccco4)nc23)n1"
1710

====

# Study system: Adenosine receptor A3 (Homo sapiens, UniProt P0DMS8)
# Test protocol: Displacement of [3H]MRE3008-F20 from human adenosine A3 receptor expressed in CHO cells; range 1061-1245
# Format: cell-based
Measure: pKi
Here pKi is given on a logarithmic scale as minus log10 of the concentration in mol/L.

Lab request: please report pKi under test system Adenosine receptor A3 (Homo sapiens, UniProt P0DMS8) for "CC(C)(C)n1cc2c(nc(N)n3nc(-c4ccco4)nc23)n1"
5.94

====

# Study system: Adenosine receptor A2a (Homo sapiens, UniProt P29274)
# Test protocol: Displacement of [3H]-SCH- 58261 from human adenosine A2A receptor expressed in CHO cells; range 85-140
# Assay type: cell-based
Measure: Ki (nM)
Give the number; nM is assumed, so skip it.

State the recorded Ki for this entry: "CC(C)=CCn1cc2c(nc(NC(=O)Nc3cccc(Cl)c3)n3nc(-c4ccco4)nc23)n1"
110

====

# Study system: Adenosine receptor A2b (Homo sapiens, UniProt P29275)
# Test protocol: Displacement of [3H]DPCPX from Adenosine A2b receptor expressed in CHO cells; range 343-468
# Type: cell-based
# Condition details: in the assay text read “HEK-293 cells” for “CHO cells”
Measure: Ki
Remember to put the unit after the number in your answer.

State the recorded Ki for this entry: "CC(C)(C)n1cc2c(nc(N)n3nc(-c4ccco4)nc23)n1"
400 nM
